Data origin, for the record: PubChem BioAssay

Each entry below carries its recorded inclusion score.
Test: GFP-Q80 aggregate reduction, neuronal-like cells, cell-based, NGF-treated PC12, GFPQ80 (AID 1614);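 also: lower means fewer inclusions and 0 means no inclusions at all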
Settings: PC12 NGF-treated GFP-polyQ80 inclusion reduction
parameterMeasured: inclusion score

>  <compound>
Cc1cc(C(C)(C)C)cc(C)c1CC1=NCCN1

>  <result>
2

$$$$
>  <compound>
Cn1c(=O)c2c(ncn2CC(O)CO)n(C)c1=O (centres undefined)

>  <result>
1

$$$$
>  <compound>
CC1(C)OC(=O)NC1=O

>  <result>
2

$$$$
>  <compound>
CCCCN(CCCC)CCCOC(=O)c1ccc(N)cc1

>  <result>
2

$$$$

* * *

Test: EMT-state selective cytotoxicity in co-culture – imaging, PC-3E GFP, TEM4-18 mCherry, primary screen (AID 1345086);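 also: normalised mesenchymal count divided by normalised epithelial count so high means epithelial killing; cells exposed to compound for 72 h before imaging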
Conditions: PC-3E GFP / TEM4-18 mCherry co-culture, imaging cell counts; at 1 µM; actives lie on both sides; counts scaled to control wells, 1 = unselective

>  <compound>
O=c1oc2c(O)c(O)cc3c(=O)oc4c(O)c(O)cc1c4c23

>  <red/green cell ratio (normalised)>
0.99

$$$$
>  <compound>
CCN(CC)CCOc1ccc(/C(=C(\Cl)c2ccccc2)c2ccccc2)cc1

>  <red/green cell ratio (normalised)>
1.05

$$$$
>  <compound>
CCN(CC)C(=O)N1CCN(C)CC1

>  <red/green cell ratio (normalised)>
1.18

$$$$
>  <compound>
O=C1CCc2cc(OCCCCc3nnnn3C3CCCCC3)ccc2N1

>  <red/green cell ratio (normalised)>
1.09

$$$$
>  <compound>
CC(N)C(=O)OC(C)(C)Cc1ccc(Cl)cc1 (stereo not given)

>  <red/green cell ratio (normalised)>
1.21

$$$$
>  <compound>
CCOC(=O)C(C)(C)Oc1ccc(Cl)cc1

>  <red/green cell ratio (normalised)>
0.94

$$$$
>  <compound>
CC(=O)OCC(=O)NCCCOc1cccc(CN2CCCCC2)c1

>  <red/green cell ratio (normalised)>
1.02

$$$$
>  <compound>
CC(=O)Oc1ccc(C(c2ccc(OC(C)=O)cc2)c2ccccn2)cc1

>  <red/green cell ratio (normalised)>
0.85

$$$$
>  <compound>
CCCN(CCC)C(=O)C(CCC(=O)O)NC(=O)c1ccccc1 (stereo not given)

>  <red/green cell ratio (normalised)>
1.08

$$$$
>  <compound>
CC(=O)NCCCCCC(=O)O

>  <red/green cell ratio (normalised)>
0.96

$$$$

* * *

Assay: Wnt pathway potentiators raising nuclear beta-catenin – imaging, WNT3A-conditioned medium, mouse C2C12, NPC library, primary screen (AID 1117326)
Conditions: stimulation, at 2 µM, stronger effect = higher value
parameterMeasured: nuclear beta-catenin stimulation (%)

>  <smilesData>
C[C@@H]1C[C@H]2[C@@H]3CCC4=CC(=O)C=C[C@]4(C)[C@@]3(F)[C@@H](O)C[C@]2(C)[C@H]1C(=O)CO

>  <numericValue>
0.6

$$$$
>  <smilesData>
Cc1[nH]cnc1CN1CCc2c(c3ccccc3n2C)C1=O

>  <numericValue>
1.4

$$$$
>  <smilesData>
CC(C)N=C(N)/N=C(\N)Nc1ccc(Cl)cc1

>  <numericValue>
0.3

$$$$

* * *

Experiment: growth inhibition, single agents and combos, LFS_MB_2R, cell-based, cisplatin combos, synergistic combos for chromothripsis tumors (AID 1671457);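 also: cells exposed to compound for four days before readout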
Conditions: LFS_MB_2R medulloblastoma cells, measured here: combination with cisplatin, at 5 µM, stronger effect = higher value
parameterMeasured: inhibition (%)

>  <smilesData>
Cc1oncc1C(=O)Nc1ccc(C(F)(F)F)cc1

>  <parameterMeasured>
inhibition

>  <numericValue>
30.1

$$$$
>  <smilesData>
Nc1nc2c(ncn2COC(CO)CO)c(=O)[nH]1

>  <parameterMeasured>
inhibition

>  <numericValue>
102

$$$$
>  <smilesData>
Nc1[nH]c(=O)ncc1F

>  <parameterMeasured>
inhibition

>  <numericValue>
-29.1

$$$$
>  <smilesData>
Nc1nc(=S)c2[nH]cnc2[nH]1

>  <parameterMeasured>
inhibition

>  <numericValue>
-6.5

$$$$
